Reported IC50 values follow for various molecules
- Tested on: Mycobacterium tuberculosis strain EH4.0 expressing green-fluorescent protein (GFP)
- Assay notes: microbe, parasite or virus in culture
- Type: cell-based
- Particulars: 168 h, read-out: pIC50 (converted)
Please reply with the bare figure in nM and do not write the unit itself.

>>> print(df.to_string())
                                 smiles_str                              study_system  numeric_result
0  CCc1nc2cc3c(cn2c1C(=O)NCc1ccc(N2CCN(S(=O)(=O)C(F)(F)F)C=N2)c(F)c1)OCCN3C  Mycobacterium tuberculosis strain EH4.0 expressing green-fluorescent protein (GFP)              38

Problem: Provide measured IC50 value, entry: `CCc1nc2cc3c(cn2c1C(=O)NCc1ccc(N2CCN(S(=O)(=O)C(F)(F)F)C=N2)c(F)c1)OCCO3`
Result: 31.6
